The entries below are paired with their reported growth at 10 µM.
# Test system: ACHN
# PROTOCOL DESCRIPTION: Cytotoxicity against human ACHN cells assessed as cell growth at 10 uM after 48 hrs by SRB assay relative to control
# Assay type: functional
# CONDITION PARAMETERS: read-out: Activity
Express it in %; write the number only.

1. CC(C)=CCC[C@H](C)c1ccc(C)c(CNCC2CCNCC2)c1O: 81
2. CC(C)=CCC[C@H](C)c1ccc(C)c(CO)c1O: 110
3. CC(C)=CCC[C@H](C)c1ccc(C)c2c1OCN(CCCCC(=O)O)C2: 98.8
4. CC(C)=CCC[C@H](C)c1ccc(C)c(CNCCCCCO)c1O: 97.7
5. CC(C)=CCC[C@H](C)c1ccc(C)c2c1OCN(CC1CCNCC1)C2: 64
6. CC(C)=CCC[C@H](C)c1ccc(C)c(CNCCCCC(=O)O)c1O: 102
7. CC(C)=CCC[C@H](C)c1ccc(C)cc1O: 109
8. COc1ccc(CCN2COc3c([C@@H](C)CCC=C(C)C)ccc(C)c3C2)cc1OC: 41
9. CC(C)=CCC[C@H](C)c1ccc(C)c(CNCCO)c1O: 97.9
10. COc1ccc(CCNCc2c(C)ccc([C@@H](C)CCC=C(C)C)c2O)cc1OC: 87.1

q: What value of growth at 10 µM has been reported for the following compound? "CC(C)=CCC[C@H](C)c1ccc(C)c2c1OCN(CCCCCO)C2"
a: 94.1

q: What value of growth at 10 µM has been recorded for this entry: "CC(C)=CCC[C@H](C)c1ccc(C)c2c1OCN(CCO)C2"
a: 90.1

====

# PROTOCOL DESCRIPTION: Cytotoxicity against human OVCAR8 cells assessed as cell growth at 10 uM after 48 hrs by SRB assay relative to control
# Format: functional
# CONDITION PARAMETERS: OVCAR-8, 48 h, read-out: Activity
Returns the class for an entry based on its growth at 10 µM. Class ranges: class A = under 80%, class B = from 80% up to 90%, class C = 90% and over

Please review the following examples before continuing.
1) CC(C)=CCC[C@H](C)c1ccc(C)c(CNCCCCC(=O)O)c1O: class C
2) CC(C)=CCC[C@H](C)c1ccc(C)c(CNCC2CCNCC2)c1O: class B

q: Determine which band this molecule sits in: "CC(C)=CCC[C@H](C)c1ccc(C)c2c1OCN(CCO)C2"
a: class B

q: Class label required: "CC(C)=CCC[C@H](C)c1ccc(C)c2c1OCN(CC1CCNCC1)C2"
a: class A

q: Just checking, what class would you give "CC(C)=CCC[C@H](C)c1ccc(C)c(CNCCCCCO)c1O" here?
a: class C

q: Field: class (growth at 10 µM) — entry: "CC(C)=CCC[C@H](C)c1ccc(C)cc1O"
a: class C

q: Which bin should I file "COc1ccc(CCN2COc3c([C@@H](C)CCC=C(C)C)ccc(C)c3C2)cc1OC" under?
a: class A

====

# PROTOCOL DESCRIPTION: Cytotoxicity against human OVCAR5 cells assessed as cell growth at 10 uM after 48 hrs by SRB assay relative to control
# Assay type: functional
# CONDITION PARAMETERS: OVCAR-5, 48 h, read-out: Activity
Entries and their growth at 10 µM
Report the value in % with no unit label.

1. CC(C)=CCC[C@H](C)c1ccc(C)c2c1OCN(CCCCCO)C2: 87.4
2. CC(C)=CCC[C@H](C)c1ccc(C)c(CNCCCCCO)c1O: 99.4
3. COc1ccc(CCNCc2c(C)ccc([C@@H](C)CCC=C(C)C)c2O)cc1OC: 96.6
4. CC(C)=CCC[C@H](C)c1ccc(C)c(CO)c1O: 110
5. CC(C)=CCC[C@H](C)c1ccc(C)c2c1OCN(CC1CCNCC1)C2: 76
6. CC(C)=CCC[C@H](C)c1ccc(C)c(CNCC2CCNCC2)c1O: 82
7. CC(C)=CCC[C@H](C)c1ccc(C)c(CNCCCCC(=O)O)c1O: 102
8. CC(C)=CCC[C@H](C)c1ccc(C)c(CNCCO)c1O: 87.6

q: Which growth at 10 µM value is on record for "CC(C)=CCC[C@H](C)c1ccc(C)c2c1OCN(CCO)C2" ?
a: 83.7

q: Tell me the measured growth at 10 µM of "CC(C)=CCC[C@H](C)c1ccc(C)cc1O" , please.
a: 99

q: Return reported growth at 10 µM; argument: "CC(C)=CCC[C@H](C)c1ccc(C)c2c1OCN(CCCCC(=O)O)C2"
a: 90.8

q: // query growth at 10 µM value for entry "COc1ccc(CCN2COc3c([C@@H](C)CCC=C(C)C)ccc(C)c3C2)cc1OC"
a: 47

====

# Tested on: HOP-92
# PROTOCOL DESCRIPTION: Cytotoxicity against human HOP92 cells assessed as cell growth at 10 uM after 48 hrs by SRB assay relative to control
# Format: functional
# CONDITION PARAMETERS: HOP-92, 48 h, read-out: Activity
MEASUREMENT NAME: growth at 10 µM (%)
I only need the number, in %, no unit after it.

q: Which growth at 10 µM is reported for this molecule? "CC(C)=CCC[C@H](C)c1ccc(C)cc1O"
a: 85

q: Can you share its growth at 10 µM? I mean this molecule: "CC(C)=CCC[C@H](C)c1ccc(C)c2c1OCN(CCCCC(=O)O)C2"
a: 83.7

q: Reported growth at 10 µM, molecule "COc1ccc(CCN2COc3c([C@@H](C)CCC=C(C)C)ccc(C)c3C2)cc1OC" : ____
a: -1.29

q: Give the measured growth at 10 µM of "CC(C)=CCC[C@H](C)c1ccc(C)c2c1OCN(CCO)C2" .
a: 4.21

q: I'd like to know its growth at 10 µM. The molecule in question is "CC(C)=CCC[C@H](C)c1ccc(C)c(CO)c1O"
a: 65.2

q: Fill blank: measured growth at 10 µM of the molecule "CC(C)=CCC[C@H](C)c1ccc(C)c2c1OCN(CC1CCNCC1)C2" is ____.
a: 12.3

q: Quick one: growth at 10 µM of "CC(C)=CCC[C@H](C)c1ccc(C)c2c1OCN(CCCCCO)C2" ?
a: 27.7

====

# SYSTEM NAME: Proto-oncogene tyrosine-protein kinase Src (Homo sapiens)
# Sequence (P12931 2-536 limits assumed): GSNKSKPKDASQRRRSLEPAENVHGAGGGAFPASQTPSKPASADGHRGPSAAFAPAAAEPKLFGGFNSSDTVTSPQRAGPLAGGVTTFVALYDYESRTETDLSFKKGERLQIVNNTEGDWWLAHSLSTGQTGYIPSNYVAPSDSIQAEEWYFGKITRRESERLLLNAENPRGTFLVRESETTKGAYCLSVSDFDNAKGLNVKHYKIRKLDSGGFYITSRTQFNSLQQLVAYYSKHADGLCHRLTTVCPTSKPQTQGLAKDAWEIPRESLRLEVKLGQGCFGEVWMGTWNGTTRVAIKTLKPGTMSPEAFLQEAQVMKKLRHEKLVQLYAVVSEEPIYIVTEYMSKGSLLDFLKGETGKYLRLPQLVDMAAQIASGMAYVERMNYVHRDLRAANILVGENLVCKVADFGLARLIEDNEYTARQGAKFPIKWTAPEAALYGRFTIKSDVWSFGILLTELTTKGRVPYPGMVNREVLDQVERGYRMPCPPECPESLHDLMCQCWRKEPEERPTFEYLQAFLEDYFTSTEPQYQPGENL
MEASUREMENT NAME: IC50 (µM)
Express it in µM; write the number only.

q: Give recorded IC50 with Proto-oncogene tyrosine-protein kinase Src (Homo sapiens) for the following molecule: "CC(C)=CCC[C@H](C)c1ccc(C)cc1O"
a: 35.8

====

Catalogue of molecules with associated growth at 10 µM
# System: SK-MEL-28
# PROTOCOL DESCRIPTION: Cytotoxicity against human SK-MEL-28 cells assessed as cell growth at 10 uM after 48 hrs by SRB assay relative to control
# Format: functional
# CONDITION PARAMETERS: SK-MEL-28, 48 h, read-out: Activity
Please format your answer as a value with the unit trailing.

See these solved cases before continuing.
1. CC(C)=CCC[C@H](C)c1ccc(C)c2c1OCN(CCO)C2: 111%
2. COc1ccc(CCNCc2c(C)ccc([C@@H](C)CCC=C(C)C)c2O)cc1OC: 104%
3. CC(C)=CCC[C@H](C)c1ccc(C)cc1O: 119%
4. CC(C)=CCC[C@H](C)c1ccc(C)c(CNCC2CCNCC2)c1O: 91%
5. CC(C)=CCC[C@H](C)c1ccc(C)c(CNCCCCCO)c1O: 112%

q: Find growth at 10 µM (SK-MEL-28) for the entry "CC(C)=CCC[C@H](C)c1ccc(C)c(CNCCCCC(=O)O)c1O"
a: 109%

q: Checklist item: growth at 10 µM tested on SK-MEL-28, entry "CC(C)=CCC[C@H](C)c1ccc(C)c2c1OCN(CC1CCNCC1)C2" , value?
a: 86%

====

# System: MDA-MB-231
# PROTOCOL DESCRIPTION: Cytotoxicity against human MDA-MB-231 cells assessed as cell growth at 10 uM after 48 hrs by SRB assay relative to control
# Format: functional
# CONDITION PARAMETERS: MDA-MB-231, 48 h, read-out: Activity
Label rule met when growth at 10 µM is strictly below 90%; at or above that, label rule not met.

Reference set (2 entries):
1. CC(C)=CCC[C@H](C)c1ccc(C)cc1O: rule not met
2. COc1ccc(CCN2COc3c([C@@H](C)CCC=C(C)C)ccc(C)c3C2)cc1OC: rule met

Read the next record carefully.
q: Please determine if "CC(C)=CCC[C@H](C)c1ccc(C)c(CNCCO)c1O" is below 90% in terms of growth at 10 µM.
a: rule met

====

Entries and their growth at 10 µM
# Tested on: SF-539
# PROTOCOL DESCRIPTION: Cytotoxicity against human SF539 cells assessed as cell growth at 10 uM after 48 hrs by SRB assay relative to control
# Type: functional
# CONDITION PARAMETERS: SF-539, 48 h, read-out: Activity
Kindly answer with a numeric value in %, unit omitted.

Worked examples follow.
1) CC(C)=CCC[C@H](C)c1ccc(C)c2c1OCN(CCCCCO)C2: 84.5
2) CC(C)=CCC[C@H](C)c1ccc(C)c(CNCC2CCNCC2)c1O: 84
3) CC(C)=CCC[C@H](C)c1ccc(C)c2c1OCN(CC1CCNCC1)C2: 73
4) COc1ccc(CCN2COc3c([C@@H](C)CCC=C(C)C)ccc(C)c3C2)cc1OC: 25
5) CC(C)=CCC[C@H](C)c1ccc(C)c(CNCCCCCO)c1O: 92.1

q: Given the compound "CC(C)=CCC[C@H](C)c1ccc(C)cc1O" , what is its reported growth at 10 µM?
a: 103

q: Value lookup for growth at 10 µM; key = "CC(C)=CCC[C@H](C)c1ccc(C)c2c1OCN(CCO)C2"
a: 88.2

q: # growth at 10 µM lookup, item "CC(C)=CCC[C@H](C)c1ccc(C)c(CNCCCCC(=O)O)c1O"
a: 111

q: I'd like to know its growth at 10 µM. The compound in question is "COc1ccc(CCNCc2c(C)ccc([C@@H](C)CCC=C(C)C)c2O)cc1OC"
a: 88.9
